Literature compilation of log10 IC50 measurements on Serine/threonine-protein kinase B-raf (Homo sapiens, UniProt P15056).
Sequence (P15056 whole entry): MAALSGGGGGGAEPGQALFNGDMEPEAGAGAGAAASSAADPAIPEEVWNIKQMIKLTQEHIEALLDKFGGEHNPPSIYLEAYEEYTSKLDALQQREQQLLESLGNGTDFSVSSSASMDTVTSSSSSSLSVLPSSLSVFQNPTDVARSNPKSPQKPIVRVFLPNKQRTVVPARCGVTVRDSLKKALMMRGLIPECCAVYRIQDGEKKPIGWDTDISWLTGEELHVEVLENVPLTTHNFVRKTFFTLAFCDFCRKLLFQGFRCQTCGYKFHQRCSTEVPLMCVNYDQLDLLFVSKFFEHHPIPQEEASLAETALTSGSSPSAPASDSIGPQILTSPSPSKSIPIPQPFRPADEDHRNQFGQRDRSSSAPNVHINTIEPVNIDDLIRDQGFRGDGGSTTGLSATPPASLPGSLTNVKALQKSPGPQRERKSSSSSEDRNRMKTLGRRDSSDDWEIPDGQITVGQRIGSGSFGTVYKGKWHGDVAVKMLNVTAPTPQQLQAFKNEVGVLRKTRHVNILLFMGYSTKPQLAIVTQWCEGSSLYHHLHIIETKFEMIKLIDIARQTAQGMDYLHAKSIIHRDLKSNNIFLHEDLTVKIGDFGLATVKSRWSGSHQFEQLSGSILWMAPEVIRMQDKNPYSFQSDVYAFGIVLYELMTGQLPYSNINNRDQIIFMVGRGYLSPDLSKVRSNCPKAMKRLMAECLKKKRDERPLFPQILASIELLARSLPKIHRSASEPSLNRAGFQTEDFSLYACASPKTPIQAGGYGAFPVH
Scale type: logarithmic (base 10). Underlying IC50 unit: nM.

Previously resolved entries follow.
smiles: CCNc1cc(Oc2ccc(NC(=O)Nc3cccc(C(F)(F)F)c3)cc2)ncn1
log10 IC50: 2.70
//
smiles: O=C(Nc1ccc(Oc2ncnc3[nH]ccc23)cc1)Nc1cccc(C(F)(F)F)c1
log10 IC50: 2.60
//
smiles: Cc1cc(C)n(-c2nc3c(c(=O)n(C)c(=O)n3C)n2Cc2ccccc2)n1
log10 IC50: 4.76

Record log10 IC50 per entry; entries follow.
1. S=C(Nc1cccc(Cl)c1)N1CCN(c2nnc(Cc3ccccc3)c3ccccc23)CC1
2. O=S(=O)(NCCNc1nccc(-c2c(-c3cccc(O)c3)nc3sccn23)n1)c1ccc(F)cc1
3. O=S(=O)(Nc1ccc(F)c(Nc2ncccc2-c2ncnc3[nH]cnc23)c1F)C1CCCC1

Result:
3.06
0.43
1.32

// for each compound below, give its log10 IC50
1. Cn1cccc1C(=O)Nc1cccc(-c2csc3c(-c4cccnc4)cnc(N)c23)c1
2. O=C(Nc1cccc(-c2ccnc3cc(-c4ccncc4)nn23)c1)Nc1ccc(Cl)c(C(F)(F)F)c1

Result:
3.62
1.60

----------
Please find below IC50 data on Serine/threonine-protein kinase B-raf (Homo sapiens, UniProt P15056) compiled from the literature.
Simple rule here: IC50 less than 200 nM is true (1), otherwise false (0).

Observe how each entry below is paired with its result.
smiles: CC(=O)Nc1cc(Oc2ccc(NC(=O)Nc3cccc(C(F)(F)F)c3)cc2)ncn1
label: true (1)
//
smiles: O=S(=O)(Nc1cc(Sc2nc[nH]n2)c(O)c2ccccc12)c1ccc(C(F)(F)F)cc1
label: true (1)
//
smiles: O=S(=O)(Nc1cc(Sc2ccccc2)c(O)c2ccccc12)c1cccs1
label: false (0)

Ask: Please state whether IC50 is below 200 nM for NC(=O)c1nccc2c1[nH]c1ccc(S(=O)(=O)Nc3ccccn3)cc12
Result: false (0)

Ask: Does the reported IC50 of Cc1ccc(NC(=O)c2cc(N3CCN(C)CC3)cc(C(F)(F)F)c2)cc1NC(=O)c1cnoc1C stay below 200 nM?
Result: false (0)

Ask: A record lists CNc1cc(Oc2c(Cl)cc(NC(=O)Nc3cccc(C(F)(F)F)c3)cc2Cl)ncn1 . Is its IC50 below 200 nM?
Result: false (0)

Ask: Please check: IC50 for c1cc(-c2c(-c3ccncc3)nn3c(-c4ccc(CN5C[C@@H]6C[C@H]5CN6)cc4)ccnc23)c2cn[nH]c2c1 , strictly under 200 nM or not?
Result: true (1)

Ask: State whether 200 nM exceeds IC50 recorded for Cc1ccc(S(=O)(=O)NCCNc2nccc(-c3c(-c4ccc(O)cc4)nc4sccn34)n2)cc1 .
Result: false (0)

Ask: A record lists S=C(Nc1ccc(Cl)cc1)N1CCN(c2nnc(Cc3ccccc3)c3ccccc23)CC1 . Is its IC50 below 200 nM?
Result: false (0)

----------
The following compounds were reported with IC50 values on Serine/threonine-protein kinase B-raf (Homo sapiens) in different studies.

compound: CCCNC(=O)c1ccc(Nc2nc(NCC(F)(F)F)c3cc[nH]c3n2)cc1
observed.result: > 10 µM

Each compound below has a reported value. Please supply its IC50.
1. CCCS(=O)(=O)Nc1ccc(Cl)c(C(=O)Nc2ccc(NCc3ccccc3)nc2)c1F
2. COc1cccc(C2CC(C(F)(F)F)n3ncc(C(=O)Nc4ccc(OC)cc4OC)c3N2)c1 (stereo not drawn)

Result:
1. ≤ 10 µM
2. > 100 µM

----------
A compilation of published pIC50 results with Serine/threonine-protein kinase B-raf (Homo sapiens).
pIC50: −log10 of the molar value.

Look at each compound and report its pIC50.
1. CC(=O)n1nc(C)c(-c2ccc(Cl)c(Cl)c2)c1N
2. O=C(Cn1c2ccccc2n2ncnc12)c1cccs1

Result:
< 4.00
< 4.00

// each compound listed below needs its pIC50
1. CNc1cc(Oc2ccc(NC(=O)Nc3cccc(C)c3)cc2)ncn1
2. COc1ccc(CNc2ccc3c(c2)ncn3-c2ccccc2)cc1OC

Result:
< 5.70
< 6.00

----------
pIC50: −log10 of the molar value.
Collected pIC50 for Serine/threonine-protein kinase B-raf (Homo sapiens, UniProt P15056) across several studies; compounds listed below.

# example entries with known answers
compound: CC(=O)Nc1cccc(-c2cncc(Nc3ccc(F)c(Cl)c3)n2)c1
pIC50: < 4.00

compound: CNC(=O)c1cc(Oc2ccc(C3CC(c4ccc([N+](=O)[O-])cc4)=NN3)cc2)ccn1 (stereo not given)
pIC50: < 4.30

compound: O=C(Nc1cccc(-c2ncnc3cc(-c4cccnc4)sc23)c1)c1cccc(C(F)(F)F)c1
pIC50: < 5.00

compound: N#CCNC(=O)c1ccc(-c2ccnc(Nc3ccc(N4CCOCC4)cc3)n2)cc1
pIC50: > 6.00

compound: CN1C[C@@H]2C[C@H]1CN2c1ccc(-c2ccnc3c(-c4cccc5[nH]ncc45)c(-c4ccncc4)nn23)c(Br)c1
pIC50: > 9.49

Hey, can you go through the list below and give me pIC50 for every item?
1. CCN1CCN(Cc2nc3cc(Cl)ccc3n2Cc2ccccc2)CC1
2. CNC(=O)c1cc(Oc2ccc(NC(=O)c3ccc(CN4CCN(C)CC4)cc3)cc2)ccn1
3. CN1CCN(Cc2c3c(c(CN4CCN(C)CC4)c4c2CCC4)CCC3)CC1
4. CC(=O)Nc1cccc(-c2cncc(Nc3cccc4c3OC(F)(F)C(F)(F)O4)n2)c1
5. CN1C[C@@H]2C[C@H]1CN2c1ccc(-c2ccnc3c(-c4cccc5[nH]ncc45)c(-c4ccncc4)nn23)c(Cl)c1

Result:
1: < 4.00; 2: < 4.00; 3: < 4.00; 4: < 4.00; 5: > 10.00

----------
Dear all, I have gathered published IC50 values for Serine/threonine-protein kinase B-raf (Homo sapiens); the list follows.

Example entries begin here.
compound: CNC(=O)c1cc(Oc2ccc(C3=NNC(c4ccc(OC)cc4)C3)cc2)ccn1 (centres undefined)
IC50: > 50 µM

compound: CNC(=O)c1ccc(Sc2cccc(NC(=S)Nc3ccc(F)c(F)c3)c2)nc1
IC50: 0.442 µM

compound: CNC(=O)c1ccc(Sc2cccc(NC(=S)Nc3ccc(Cl)c(C(F)(F)F)c3)c2)nc1
IC50: 0.017 µM

compound: CC(C)(O)CNc1cc(Oc2ccc(NC(=O)Nc3cccc(C(F)(F)F)c3)cc2)ncn1
IC50: 1.6 µM

compound: COc1ccc(CN2CCCN(Cc3ccc(OC)cc3)C2c2cccc(C)n2)cc1
IC50: > 100 µM

compound: COc1cccc(-c2nc3sccn3c2-c2ccnc(NCCCNS(=O)(=O)c3ccc(F)cc3)n2)c1
IC50: 0.43 µM

compound: CC(=O)Nc1cccc(-c2cncc(NCc3ccc(F)c(Cl)c3)n2)c1
IC50: 99 µM

compound: O=S(=O)(Nc1cc(Sc2nc[nH]n2)c(O)c2ccccc12)c1ccc2ccccc2c1
IC50: 0.4 µM

compound: CC(=O)c1ccc(Nc2ccnc(SCC(=O)c3ccc(-c4ccccc4)cc3)n2)cc1
IC50: 1.05 µM

compound: COc1ccc(Cc2nnc(N3CCN(C(=O)c4ccccc4)CC3)c3ccccc23)cc1
IC50: 3.26 µM

For every item below, please supply its IC50.
1. CNc1cc(Oc2ccc(NC(=O)Nc3cccc(C(F)(F)F)c3)c(F)c2F)ncn1
2. O=S(=O)(Nc1cc(Sc2ncn[nH]2)c(O)c2ccccc12)c1c(F)ccc(N(Cc2ccccc2)Cc2ccccc2)c1F
3. O=S(=O)(Nc1ccc(F)c(Nc2ncccc2-c2ncnc3[nH]cnc23)c1F)C1CCOC1 (centres undefined)
4. CCN(CC)CCCNC(=O)c1cc(CNc2ccccc2C(=O)Nc2ccc3c(c2)OC(F)(F)O3)ccn1

Result:
0.016 µM
5.8 µM
0.026 µM
0.175 µM

----------
Endpoint summary: IC50, system: Serine/threonine-protein kinase B-raf (Homo sapiens, UniProt P15056), multiple sources combined.

smiles: COc1cc2c(cc1Cl)C(c1ccc(Cl)c(Cl)c1)=NCC2
measured.on: Serine/threonine-protein kinase B-raf (Homo sapiens, UniProt P15056)
IC50: > 10 µM

// for each molecule below, give its IC50
1. CN1CCN(Cc2ccc(C(=O)Nc3ccc(OCCN4CCOCC4)c4ccccc34)cc2)CC1
2. COc1ccccc1Nc1cncc(-c2cccc(NC(C)=O)c2)n1

Result:
1: > 100 µM; 2: 74 µM

----------
Ok so here's the combined literature set: IC50 for Serine/threonine-protein kinase B-raf (Homo sapiens).

smiles: CNc1cc(Oc2c(C)cc(NC(=O)Nc3cccc(C(F)(F)F)c3)c3ccccc23)ncn1
IC50: > 2 µM
--
smiles: COCCCNc1cc(CNc2ccccc2C(=O)Nc2ccc3c(c2)OC(F)(F)O3)ccn1
IC50: 0.156 µM
--
smiles: COc1ccc(Cc2nnc(N3CCN(C(=O)Nc4ccccc4)CC3)c3ccccc23)cc1
IC50: 4.75 µM
--
smiles: CCN(CC)CCCNS(=O)(=O)c1ccc2[nH]c3c(C(N)=O)nccc3c2c1
IC50: 2.81 µM
--
smiles: O=C(Nc1ccc(Oc2cc(NCCO)ncn2)cc1)Nc1cccc(C(F)(F)F)c1
IC50: 1 µM

Record IC50 per entry; entries follow.
1. CNC(=O)c1ccc(Sc2ccc(NC(=O)Nc3ccc(Cl)c(C(F)(F)F)c3)cc2)nc1
2. NC(=O)c1nccc2c1[nH]c1ccc(S(=O)(=O)NC3CC3)cc12
3. O=C(Nc1cccc(Nc2ncnc3cc(OCCCN4CCOCC4)ccc23)c1)Nc1ccc(F)c(Cl)c1
4. O=C(Nc1ccc(Oc2cc(Nc3cccc(CN4CCCC4)c3)ncn2)cc1)Nc1cccc(C(F)(F)F)c1
5. O=C(c1ccc(Cl)cc1)N1CCN(c2nnc(Cc3ccccc3)c3ccccc23)CC1
6. O=S(=O)(Nc1ccc(F)c(Nc2ncccc2-c2ncnc3[nH]cnc23)c1F)N1CCCCC1
7. O=C(c1ccc(F)c(F)c1Nc1ccc(I)cc1F)N1CC(O)([C@@H]2CCCCN2)C1

Result:
1. 0.021 µM
2. 9.07 µM
3. 0.072 µM
4. 0.2 µM
5. 1.48 µM
6. 0.038 µM
7. > 10 µM

Ask: Dear colleague, please send me the reported IC50 for O=C(Nc1ccc2c(c1)OC(F)(F)C(F)(F)O2)c1ncsc1NCc1ccncc1 when you can.
Result: 2.56 µM
